experiment: MM1S cell viability effects, profiling panel, calcein-AM fluorescence, 48 h, basal (AID 1165); conditions: higher = more signal;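 also: viability of MM1S multiple myeloma cells under basal unstimulated conditions; test concentration not given here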
Param threshold (-0.2) applies to z-score; output Met when value >= threshold, Not met when value < threshold.

molecule=Cc1ccc(S[C@]2(C(=O)O)CC(=O)N(Cc3ccccc3)[C@@H]2c2ccc(CO)cc2I)cc1 label_value="Not met"
molecule=CC(CCN1CCc2nc(-c3ccccc3)c(-c3ccccc3)cc2C1)=NOC[C@@H](C)[C@H](OCc1ccccc1)C(C)C label_value="Not met"
molecule=O=C(CS)NCCCCCNC(=O)[C@H]1C[C@H]2C(=O)N3CCC[C@H]3C(=O)N2[C@H]1c1cccc(OCCO)c1 label_value=Met
molecule=COCCOC(=O)N1C(=O)[C@@]2(c3cc(C#Cc4ccc(OC)cc4)ccc31)[C@H](C(=O)N1CCN(c3ncccn3)CC1)[C@H]1C(=O)O[C@H](c3ccccc3)[C@H](c3ccccc3)N1[C@@H]2c1ccc(OCCO)cc1 label_value="Not met"
molecule=COC(=O)CC=C[C@@H](C)[C@H](OC)c1ccccc1Br label_value=Met
molecule=O=C1[C@H]2[C@H]3[C@H](O)[C@H](O)CC(=NO[C@@H]4O[C@H](CO)[C@@H](O)[C@H](O)[C@H]4O)[C@@H]3CC[C@H]2C(=O)N1Cc1ccccc1 label_value=Met
molecule=CC(C)(C)OC(=O)CC[C@]1(C(N)=O)COC(c2ccc(OCCCO)cc2)=N1 label_value=Met
molecule=CC(C)CON=C1C[C@@H](O)[C@@H](O)[C@@H]2[C@@H]3C(=O)N(Cc4ccccc4)C(=O)[C@@H]3CC[C@@H]12 label_value=Met
molecule="CC(C)c1ccc(NN2C(C(O)c3ccc4c(c3)OCO4)C=CC3C(=O)N(c4ccccc4)C(=O)C32)cc1 (stereo not given)" label_value="Not met"
molecule=CC(C)(C)N1C(=O)[C@H]2[C@H]3[C@H](O)[C@H](O)CC(=NO[C@@H]4O[C@H](CO)[C@@H](O)[C@H](O)[C@H]4O)[C@@H]3CC[C@H]2C1=O label_value="Not met"

----------
Collected composite z-score values appear next to each entry.
assay: small-molecule microarray binders of probe aDKK1, primary screen, biochemical, biotinylated probe, 635/667 nm fluorescence (AID 1099); conditions: higher = more signal;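 also: score merges 667nm spot fluorescence with signal to noise across triplicate slides; reference of the scale not given here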
measured.quantity: composite z-score

compound="COc1ccc(-c2ccc3c(n2)CCCN3CC(O)CN2CCCc3nc(C)c(C)cc32)cc1 (stereo not given)" value_reported=0.323
compound=COc1ccc([Si](C)(C)[C@@H]2[C@@H](CC(=O)N3CCC[C@H]3CO)O[C@]3(C(=O)N(Cc4cccc(N5CCC5=O)c4)c4ccccc43)[C@H]2C)cc1 value_reported=-0.264
compound=CC(CCN1CCc2nc(-c3ccccc3)c(-c3ccccc3)cc2C1)=NO[C@H](C)c1cn([C@@H]2COC[C@H]2O)nn1 value_reported=-0.182
compound=CCOC(=O)NN=C1C[C@@H](O)[C@@H](O)[C@@H]2[C@@H]3C(=O)N(C4CCCCC4)C(=O)[C@@H]3CC[C@@H]12 value_reported=-0.192
compound=CC(=O)OC[C@H]1O[C@H](CCON=C(C)CCC(=O)OC[C@H]2O[C@H](C#Cc3ccccc3)C=C[C@@H]2Oc2ccc(C)cc2)C=C[C@@H]1OC(C)=O value_reported=-0.304
